experimental.system: T1, DFNB31_1, Q9P202
T1 sequence (Q9P202 135-233, limits assumed, looked up): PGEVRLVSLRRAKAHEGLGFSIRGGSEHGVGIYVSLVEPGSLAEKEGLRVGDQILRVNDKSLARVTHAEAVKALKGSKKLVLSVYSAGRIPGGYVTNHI
method.notes: holdup assay
Set-up: key: below the threshold = too weak to quantify, mostly under pKd 3.1 to 4
test.settings: plain residues with an end cap or a label only (N-terminal biotin on a linker: ado-ado)
readout.label: pKd

Look up pKd of FHSIKQSTAV [CRHR1, P34998] and report it.
4.39

Look up pKd of NNMAFETTHF [SLC5A12, Q1EHB4] and report it.
4.01

Look up pKd of KAEEKPPSKV [SCN4B, Q8IWT1] and report it.
3.57
